normalized RNA/DNA level without ligand (log10) values by entry
B1: library; a variant is named by its letters at N, in order (parent)
chain: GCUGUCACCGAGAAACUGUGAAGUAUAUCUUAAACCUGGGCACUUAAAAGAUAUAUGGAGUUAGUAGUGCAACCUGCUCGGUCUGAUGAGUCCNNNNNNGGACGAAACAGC

variants of: B1; experiment: normalized RNA/DNA level without ligand (relative to sTRSVctl = 100) (log10 (% of sTRSVctl)); HEK293T; ligand: cyclic di-GMP (c-di-GMP-II aptamer); higher = less ribozyme self-cleavage, higher mRNA level; conditions: reporter: mCherry (pCS4076), ligand present: no
parameter: normalized RNA/DNA level without ligand (log10)

* GCUGUCACCGAGAAACUGUGAAGUAUAUCUUAAACCUGGGCACUUAAAAGAUAUAUGGAGUUAGUAGUGCAACCUGCUCGGUCUGAUGAGUCCUCAUGGGGACGAAACAGC [UCAUGG] | 1.77
* GCUGUCACCGAGAAACUGUGAAGUAUAUCUUAAACCUGGGCACUUAAAAGAUAUAUGGAGUUAGUAGUGCAACCUGCUCGGUCUGAUGAGUCCAAGCUGGGACGAAACAGC [AAGCUG] | 1.64
* GCUGUCACCGAGAAACUGUGAAGUAUAUCUUAAACCUGGGCACUUAAAAGAUAUAUGGAGUUAGUAGUGCAACCUGCUCGGUCUGAUGAGUCCAUGUAGGGACGAAACAGC [AUGUAG] | 1.59
* GCUGUCACCGAGAAACUGUGAAGUAUAUCUUAAACCUGGGCACUUAAAAGAUAUAUGGAGUUAGUAGUGCAACCUGCUCGGUCUGAUGAGUCCGCAGCCGGACGAAACAGC [GCAGCC] | 1.67
* GCUGUCACCGAGAAACUGUGAAGUAUAUCUUAAACCUGGGCACUUAAAAGAUAUAUGGAGUUAGUAGUGCAACCUGCUCGGUCUGAUGAGUCCCAUUUGGGACGAAACAGC [CAUUUG] | 1.75
* GCUGUCACCGAGAAACUGUGAAGUAUAUCUUAAACCUGGGCACUUAAAAGAUAUAUGGAGUUAGUAGUGCAACCUGCUCGGUCUGAUGAGUCCACGCGCGGACGAAACAGC [ACGCGC] | 1.63
* GCUGUCACCGAGAAACUGUGAAGUAUAUCUUAAACCUGGGCACUUAAAAGAUAUAUGGAGUUAGUAGUGCAACCUGCUCGGUCUGAUGAGUCCUCAGGAGGACGAAACAGC [UCAGGA] | 1.45
* GCUGUCACCGAGAAACUGUGAAGUAUAUCUUAAACCUGGGCACUUAAAAGAUAUAUGGAGUUAGUAGUGCAACCUGCUCGGUCUGAUGAGUCCGAGUGAGGACGAAACAGC [GAGUGA] | 1.71
* GCUGUCACCGAGAAACUGUGAAGUAUAUCUUAAACCUGGGCACUUAAAAGAUAUAUGGAGUUAGUAGUGCAACCUGCUCGGUCUGAUGAGUCCUAAAGAGGACGAAACAGC [UAAAGA] | 1.6
* GCUGUCACCGAGAAACUGUGAAGUAUAUCUUAAACCUGGGCACUUAAAAGAUAUAUGGAGUUAGUAGUGCAACCUGCUCGGUCUGAUGAGUCCGGUUAAGGACGAAACAGC [GGUUAA] | 1.54
* GCUGUCACCGAGAAACUGUGAAGUAUAUCUUAAACCUGGGCACUUAAAAGAUAUAUGGAGUUAGUAGUGCAACCUGCUCGGUCUGAUGAGUCCAUUUCCGGACGAAACAGC [AUUUCC] | 1.79
* GCUGUCACCGAGAAACUGUGAAGUAUAUCUUAAACCUGGGCACUUAAAAGAUAUAUGGAGUUAGUAGUGCAACCUGCUCGGUCUGAUGAGUCCAAAUCUGGACGAAACAGC [AAAUCU] | 1.7
* GCUGUCACCGAGAAACUGUGAAGUAUAUCUUAAACCUGGGCACUUAAAAGAUAUAUGGAGUUAGUAGUGCAACCUGCUCGGUCUGAUGAGUCCGCGUACGGACGAAACAGC [GCGUAC] | 1.34
* GCUGUCACCGAGAAACUGUGAAGUAUAUCUUAAACCUGGGCACUUAAAAGAUAUAUGGAGUUAGUAGUGCAACCUGCUCGGUCUGAUGAGUCCCUUCCGGGACGAAACAGC [CUUCCG] | 1.76
* GCUGUCACCGAGAAACUGUGAAGUAUAUCUUAAACCUGGGCACUUAAAAGAUAUAUGGAGUUAGUAGUGCAACCUGCUCGGUCUGAUGAGUCCUUAGUAGGACGAAACAGC [UUAGUA] | 1.61
* GCUGUCACCGAGAAACUGUGAAGUAUAUCUUAAACCUGGGCACUUAAAAGAUAUAUGGAGUUAGUAGUGCAACCUGCUCGGUCUGAUGAGUCCAAAGUUGGACGAAACAGC [AAAGUU] | 1.59
